Sourced from patent US20140349943A1

# Measured Target: ChemR23 (CMKLR1) (Homo sapiens)
# Construct: host or cells: CHO
# Sequence (Q99788 whole entry): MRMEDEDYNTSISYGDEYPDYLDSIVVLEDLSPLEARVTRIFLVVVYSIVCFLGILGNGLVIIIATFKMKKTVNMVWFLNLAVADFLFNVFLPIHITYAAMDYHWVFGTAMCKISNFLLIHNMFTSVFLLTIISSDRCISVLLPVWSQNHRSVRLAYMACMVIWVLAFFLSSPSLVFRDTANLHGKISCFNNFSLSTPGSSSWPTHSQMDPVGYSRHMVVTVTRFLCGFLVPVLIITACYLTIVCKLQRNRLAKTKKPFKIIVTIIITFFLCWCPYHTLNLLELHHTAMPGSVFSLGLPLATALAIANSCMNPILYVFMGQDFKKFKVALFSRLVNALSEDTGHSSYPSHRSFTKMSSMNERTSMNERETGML
# Procedure Text: PathHunter β-Arrestin assay, ChemR23 (CMKLR1), agonist and antagonist mode
# Assay type: cell-based
# Setup Conditions: ChemR23; agonist
Peptide text beside a SMILES is read from it.
Recorded Metric: Rank Order
Quick one: just the number, no unit, thanks!

The compound C[C@H](N)C(=O)NCC(=O)N[C@@H](CCC(=O)O)C(=O)N[C@@H](CC(=O)O)C(=O)N1CCC[C@H]1C(=O)N[C@@H](Cc1c[nH]cn1)C(=O)N[C@@H](CO)C(=O)N[C@@H](Cc1ccccc1)C(=O)N[C@@H](Cc1ccc(O)cc1)C(=O)N[C@@H](Cc1ccccc1)C(=O)N1CCC[C@H]1C(=O)NCC(=O)N[C@@H](CCC(N)=O)C(=O)N[C@@H](Cc1ccccc1)C(=O)N[C@@H](C)C(=O)O [C15 (human)] (H-AGEDPHSFYFPGQFA-OH; N-terminus and C-terminus assumed) , when measured on ChemR23 (CMKLR1) (Homo sapiens), yielded Rank Order of 3

The compound CC(C)C[C@H](NC(=O)[C@H](Cc1ccccc1)NC(=O)[C@H](Cc1ccc(O)cc1)NC(=O)CNC(=O)[C@H](Cc1c[nH]cn1)NC(=O)[C@@H]1CCCN1C(=O)[C@H](CC(=O)O)NC(=O)[C@H](CCC(=O)O)NC(=O)CNC(=O)[C@H](C)N)C(=O)N1CCC[C@H]1C(=O)NCC(=O)N[C@@H](CCC(N)=O)C(=O)N[C@@H](Cc1ccccc1)C(=O)N[C@@H](C)C(=O)O [mC15] (H-AGEDPHGYFLPGQFA-OH; N-terminus and C-terminus assumed) , when measured on ChemR23 (CMKLR1) (Homo sapiens), yielded Rank Order of 3

The compound C[C@H](N)C(=O)NCC(=O)N[C@@H](CCC(=O)O)C(=O)N[C@@H](CC(=O)O)C(=O)N1CCC[C@H]1C(=O)N[C@@H](Cc1c[nH]cn1)C(=O)N[C@@H](CO)C(=O)N[C@@H](Cc1ccccc1)C(=O)N[C@@H](Cc1ccc(O)cc1)C(=O)N[C@@H](Cc1ccccc1)C(=O)N1CCC[C@H]1C(=O)NCC(=O)N[C@@H](CCC(N)=O)C(=O)N[C@@H](Cc1ccccc1)C(=O)N[C@@H](C)C(=O)N[C@@H](Cc1ccccc1)C(=O)O [C16 (human)] (H-AGEDPHSFYFPGQFAF-OH; N-terminus and C-terminus assumed) , when measured on ChemR23 (CMKLR1) (Homo sapiens), yielded Rank Order of 1
